# measuredOn: HIV-1 reverse transcriptase (HIV-1, UniProt P04585;P04585 P04585:588-1147,P04585:588-1027)
# experimentNotes: inhibition; Ki' for RNA-dependent DNA polymerase activity
# measurementContext: tags: overexpressed in E. coli, purified per Davies et al. 1991; label: 5'-32P
parameter: pKi
Value format note: pKi is -log10 of concentration (mol/L); just state the number.

[in] Which pKi value is on record for RT6 (ssDNA) DNA: ATCCGCCTGATTAGCGATACTCAGGCGTTAGGGAAGGGCGTCGAAAGCAGGGTGGGACTTGAGCAAAATCACCTGCAGGGG ?
[out] 7.52
